Experiment: in vivo
Settings: mouse, im, 4 mg/kg
Property: Cmax (nM)
Write down the numeric answer in nM and omit the unit.

Reported Cmax for Cc1cc(OCCOCCOCCP(=O)(O)O)ccc1CCc1cnc2c(N)nc3cc(CCC(=O)O)ccc3c2c1 [free base] : what is it? 453

* * *

Experiment: in vivo
Conditions: mouse, im, 4 mg/kg
Property: AUC(0-t) (µM·h)
Write down the numeric answer in µM·h and omit the unit.

Reported AUC(0-t) for Cc1cc(OCCOCCOCCP(=O)(O)O)ccc1CCc1cnc2c(N)nc3cc(CCC(=O)O)ccc3c2c1 [free base] : what is it? 4.54

* * *

Experiment: in vivo
Settings: mouse, im, 4 mg/kg
Property: Tmax (min)
Write down the numeric answer in min and omit the unit.

Reported Tmax for Cc1cc(OCCOCCOCCP(=O)(O)O)ccc1CCc1cnc2c(N)nc3cc(CCC(=O)O)ccc3c2c1 [free base] : what is it? 40.2
